System: Scirpus juncoides
assay-remarks: Test Example 2: herbicidal effect test by treatment during growing period in paddy rice cultivation (seven days after seeding)
Type: in vivo
condition-label: 120 g/10a active ingredient, assessed 14 days after treatment, dry weight vs untreated area
measurement-label: Herbicidal rate (%) Scirpus juncoides
Report only the number, with the unit % understood.

Recorded results for 5 compounds are shown here.
Fill in: Herbicidal rate (%) Scirpus juncoides of Cc1c(Cc2ccccc2N(C(=O)OCc2ccccc2)S(=O)(=O)C(F)(F)F)c(=O)on1C(C)(C)C [Compound 1-781] is ___
90

Then this compound: COCC(C)n1oc(=O)c(Cc2ccccc2N(C(=O)OC(C)C)S(=O)(=O)C(F)(F)F)c1C (stereo not drawn) [Compound 1-647]
90

Then this compound: CCCC(CC)n1oc(=O)c(Cc2ccccc2NS(=O)(=O)C(F)(F)F)c1C (stereo not drawn) [Compound 1-110]
80

Then this compound: CCS(=O)(=O)N(c1ccccc1Cc1c(C)n(C(C)COC)oc1=O)S(=O)(=O)C(F)(F)F (stereo not drawn) [Compound 1-915]
90

Then this compound: Cc1c(Cc2ccccc2N(S(=O)(=O)C(F)(F)F)S(=O)(=O)C(F)(F)F)c(=O)on1CC1(C)CO1 (stereo not drawn) [Compound 1-1051]
90

Next:
Fill in: Herbicidal rate (%) Scirpus juncoides of Cc1c(Cc2ccccc2NS(=O)(=O)C(F)(F)F)c(=O)on1C [Compound 1-97] is ___
90

Then this compound: CCC(CC)n1oc(=O)c(Cc2ccccc2N(C(=O)C(C)C)S(=O)(=O)C(F)(F)F)c1C [Compound 1-331]
90

Then this compound: CCC(=O)N(c1ccccc1Cc1c(C)n(C(C)CC)oc1=O)S(=O)(=O)C(F)(F)F (stereo not drawn) [Compound 1-316]
90

Then this compound: Cc1c(Cc2ccccc2NS(=O)(=O)C(F)(F)F)c(=O)on1C(C)c1ccsc1 (stereo not drawn) [Compound 1-235]
60

Then this compound: COC(=O)N(c1ccccc1Cc1c(C)n(Cc2ccc(F)cc2)oc1=O)S(=O)(=O)C(F)(F)F [Compound 1-597]
90

Then this compound: COCCOC(=O)N(c1ccccc1Cc1c(C)n(C(C)c2ccccc2)oc1=O)S(=O)(=O)C(F)(F)F (stereo not drawn) [Compound 1-736]
90

Then this compound: CCCCC(c1ccccc1)n1oc(=O)c(Cc2ccccc2NS(=O)(=O)C(F)(F)F)c1C (stereo not drawn) [Compound 1-214]
80

Then this compound: CCC(=O)N(c1ccccc1Cc1c(C)n(CC(C)(C)C)oc1=O)S(=O)(=O)C(F)(F)F [Compound 1-318]
90

Then this compound: Cc1c(Cc2ccccc2N(S(=O)(=O)C(F)(F)F)S(=O)(=O)C(F)(F)F)c(=O)on1Cc1cccc(C(F)(F)F)c1 [Compound 1-1020]
40

Then this compound: CCCC(C)n1oc(=O)c(Cc2ccccc2N(C(C)=O)S(=O)(=O)C(F)(F)F)c1C (stereo not drawn) [Compound 1-299]
90
